# measurement description: A CellTox Green Cytotoxicity Assay to monitor cytotoxicity in HepG2 cells - 32 hour (AID 1224883); further: nearly all actives have a fitted effect of over 50% in size
# experimental parameters: CellTox Green fluorescence; series mostly up to 76.8 µM
Results filed as inconclusive are left out. Active and inactive are the calls of the source. The call rests on the fitted dose curve; in most records, active means well fitted activation curve with a large enough effect in the repeat runs; inconclusive means weak or mixed curves; inactive means flat fitted curve, though single readings scatter.
Form entry, call: pick from active, inactive

[Q] // outcome(item) with item = "C=C(C)C(=O)O"
[A] inactive

[Q] Entry "Cc1cc(C2(c3cc(C)c(O)cc3C)OS(=O)(=O)c3ccccc32)c(C)cc1O" please
[A] inactive

[Q] Entry O=c1n(CC2CO2)c(=O)n(CC2CO2)c(=O)n1CC1CO1 (stereo not drawn) please
[A] inactive

[Q] Entry "CCN(CC)C(=S)SSC(=S)N(CC)CC" please
[A] active

[Q] Entry "NC(=Nc1ccccc1)Nc1ccccc1" please
[A] inactive

[Q] Entry "NCCO" please
[A] inactive

[Q] Entry C#CC(C)(CC)OC(=O)c1ccccc1C(=O)O (stereo not drawn) please
[A] inactive

[Q] Entry c1cc(C(c2ccc(OCC3CO3)cc2)C(c2ccc(OCC3CO3)cc2)c2ccc(OCC3CO3)cc2)ccc1OCC1CO1 (stereo not drawn) please
[A] inactive
